Entries and their Activity values follow.
# system.name: Androgen receptor (Homo sapiens)
# measurement.protocol: Induction of androgen receptor degradation in human VCaP cells at 0.1 uM after 24 hrs by Western blotting analysis relative to control
# Assay type: cell-based
measurement.kind: Activity (%)

1. N#Cc1ccc(N2CCC3(CCN(c4ccc(C(=O)N5CC6(C5)CN(C5CN(c7ccc8c(c7)C(=O)N(C7CCC(=O)NC7=O)C8=O)C5)C6)cc4)CC3)C2)cc1Cl (stereo not drawn)	62
2. C[C@H]1N(c2ccc(C#N)c(Cl)c2)CCC12CCN(c1ccc(C(=O)N3CCN(C4CN(c5ccc6c(c5)C(=O)N(C5CCC(=O)NC5=O)C6=O)C4)CC3)cc1)CC2 (stereo partly drawn)	68

###

# system.name: Cytochrome P450 2C19 (Homo sapiens)
# Sequence (P33261 whole entry): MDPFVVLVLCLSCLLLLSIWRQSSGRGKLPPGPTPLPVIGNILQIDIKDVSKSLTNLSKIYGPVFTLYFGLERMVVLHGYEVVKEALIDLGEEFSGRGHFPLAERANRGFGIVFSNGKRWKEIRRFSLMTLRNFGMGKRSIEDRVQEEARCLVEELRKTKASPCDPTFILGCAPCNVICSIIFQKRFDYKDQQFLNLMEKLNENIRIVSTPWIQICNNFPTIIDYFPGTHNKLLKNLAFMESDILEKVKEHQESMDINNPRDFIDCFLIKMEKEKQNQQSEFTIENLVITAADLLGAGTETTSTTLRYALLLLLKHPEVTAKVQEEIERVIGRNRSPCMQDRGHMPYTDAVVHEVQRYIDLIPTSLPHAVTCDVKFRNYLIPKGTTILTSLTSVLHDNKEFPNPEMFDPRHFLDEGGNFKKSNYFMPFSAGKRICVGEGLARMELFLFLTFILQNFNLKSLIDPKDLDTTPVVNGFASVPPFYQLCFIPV
measurement.kind: IC50

1) C[C@H]1CC2(CCN(c3ccc(C(=O)N4CCN(C5CN(c6ccc7c(c6)C(=O)N(C6CCC(=O)NC6=O)C7=O)C5)CC4)cc3)CC2)CN1c1ccc(C#N)c(Cl)c1 (stereo partly specified)	> 10 µM

###

# system.name: Androgen receptor (Homo sapiens)
# measurement.protocol: Induction of androgen receptor degradation in human VCaP cells at 0.1 uM after 24 hrs by Western blotting analysis relative to control
# Type: cell-based
Entries annotated with measured Activity
measurement.kind: Activity (%)

1. N#Cc1ccc(N2CCC3(CCN(c4ccc(C(=O)N5CC6(C5)CN(C5CCN(c7ccc8c(c7)C(=O)N(C7CCC(=O)NC7=O)C8=O)CC5)C6)cc4)CC3)C2)cc1Cl (stereo unspecified)	46
2. C[C@@H]1CC2(CCN(c3ccc(C(=O)N4CCN(C5CN(c6ccc7c(c6)C(=O)N(C6CCC(=O)NC6=O)C7=O)C5)CC4)cc3)CC2)CN1c1ccc(C#N)c(Cl)c1 (stereo partly specified)	93
3. N#Cc1ccc(N2CCC3(CCN(c4ccc(C(=O)N5CCC(N6CCN(c7ccc8c(c7)C(=O)N(C7CCC(=O)NC7=O)C8=O)CC6)CC5)cc4)CC3)C2)cc1Cl (stereo unspecified)	20
4. N#Cc1ccc(N2CCC3(CCN(c4ccc(C(=O)N5CCN(CC6CCN(c7ccc8c(c7)C(=O)N(C7CCC(=O)NC7=O)C8=O)CC6)CC5)cc4)CC3)C2)cc1Cl (stereo unspecified)	80

###

Reported Activity values are given for each entry in this list.
# system.name: Androgen receptor (Homo sapiens)
# Sequence (whole entry): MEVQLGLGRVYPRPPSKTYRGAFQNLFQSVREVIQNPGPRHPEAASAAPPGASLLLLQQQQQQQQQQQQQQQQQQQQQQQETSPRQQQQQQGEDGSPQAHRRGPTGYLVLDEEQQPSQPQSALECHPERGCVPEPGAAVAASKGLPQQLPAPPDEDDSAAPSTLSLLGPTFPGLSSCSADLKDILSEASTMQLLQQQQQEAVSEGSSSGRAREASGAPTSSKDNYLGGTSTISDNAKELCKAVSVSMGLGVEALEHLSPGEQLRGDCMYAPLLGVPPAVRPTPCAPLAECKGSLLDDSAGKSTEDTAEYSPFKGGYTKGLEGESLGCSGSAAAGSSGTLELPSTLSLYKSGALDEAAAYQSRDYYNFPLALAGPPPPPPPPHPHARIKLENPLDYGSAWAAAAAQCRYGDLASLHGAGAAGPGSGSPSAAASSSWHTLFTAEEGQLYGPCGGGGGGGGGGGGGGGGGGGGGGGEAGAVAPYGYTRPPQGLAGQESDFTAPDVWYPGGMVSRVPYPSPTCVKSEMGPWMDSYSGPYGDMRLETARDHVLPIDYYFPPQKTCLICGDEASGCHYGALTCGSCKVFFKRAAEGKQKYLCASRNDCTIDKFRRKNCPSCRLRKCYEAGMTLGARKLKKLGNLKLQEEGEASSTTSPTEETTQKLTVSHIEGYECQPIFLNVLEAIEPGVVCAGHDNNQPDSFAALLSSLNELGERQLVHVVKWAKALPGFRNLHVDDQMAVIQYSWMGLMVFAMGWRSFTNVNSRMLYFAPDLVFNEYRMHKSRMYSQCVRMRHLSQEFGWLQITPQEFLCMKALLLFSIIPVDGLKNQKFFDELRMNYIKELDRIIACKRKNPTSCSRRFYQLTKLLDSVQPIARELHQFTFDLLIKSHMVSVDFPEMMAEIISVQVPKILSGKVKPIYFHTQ
# measurement.protocol: Induction of androgen receptor degradation in human VCaP cells at 1 uM after 24 hrs by Western blotting analysis relative to control
# Format: cell-based
measurement.kind: Activity

1) N#Cc1ccc(N2CCC3(CCN(c4ccc(C(=O)N5CCN(C6CCN(c7ccc8c(c7)C(=O)N(C7CCC(=O)NC7=O)C8=O)CC6)CC5)cc4)CC3)C2)cc1Cl (stereo unspecified)	95%
2) C[C@H]1CC2(CCN(c3ccc(C(=O)N4CCN(CC5CCN(c6ccc7c(c6)C(=O)N(C6CCC(=O)NC6=O)C7=O)CC5)CC4)cc3)CC2)CN1c1ccc(C#N)c(Cl)c1 (stereo partly specified)	> 95%
3) C[C@H]1CC2(CCN(c3ccc(C(=O)N4CCN(C5CN(c6ccc7c(c6)C(=O)N(C6CCC(=O)NC6=O)C7=O)C5)CC4)cc3)CC2)CN1c1ccc(C#N)c(Cl)c1 (stereo partly specified)	> 95%
4) C[C@@H]1CC2(CCN(c3ccc(C(=O)N4CCN(C5CN(c6ccc7c(c6)C(=O)N(C6CCC(=O)NC6=O)C7=O)C5)CC4)cc3)CC2)CN1c1ccc(C#N)c(Cl)c1 (stereo partly specified)	> 95%
5) C[C@H]1CC2(CCN(c3ccc(C(=O)N4CC5(C4)CN(c4ccc6c(c4)C(=O)N(C4CCC(=O)NC4=O)C6=O)C5)cc3)CC2)CN1c1ccc(C#N)c(Cl)c1 (stereo partly specified)	> 95%
6) N#Cc1ccc(N2CCC3(CCN(c4ccc(C(=O)N5CCCN(C6CCN(c7ccc8c(c7)C(=O)N(C7CCC(=O)NC7=O)C8=O)CC6)CCC5)cc4)CC3)C2)cc1Cl (stereo unspecified)	54%

###

# system.name: UniProtKB P10275
# Sequence (whole entry): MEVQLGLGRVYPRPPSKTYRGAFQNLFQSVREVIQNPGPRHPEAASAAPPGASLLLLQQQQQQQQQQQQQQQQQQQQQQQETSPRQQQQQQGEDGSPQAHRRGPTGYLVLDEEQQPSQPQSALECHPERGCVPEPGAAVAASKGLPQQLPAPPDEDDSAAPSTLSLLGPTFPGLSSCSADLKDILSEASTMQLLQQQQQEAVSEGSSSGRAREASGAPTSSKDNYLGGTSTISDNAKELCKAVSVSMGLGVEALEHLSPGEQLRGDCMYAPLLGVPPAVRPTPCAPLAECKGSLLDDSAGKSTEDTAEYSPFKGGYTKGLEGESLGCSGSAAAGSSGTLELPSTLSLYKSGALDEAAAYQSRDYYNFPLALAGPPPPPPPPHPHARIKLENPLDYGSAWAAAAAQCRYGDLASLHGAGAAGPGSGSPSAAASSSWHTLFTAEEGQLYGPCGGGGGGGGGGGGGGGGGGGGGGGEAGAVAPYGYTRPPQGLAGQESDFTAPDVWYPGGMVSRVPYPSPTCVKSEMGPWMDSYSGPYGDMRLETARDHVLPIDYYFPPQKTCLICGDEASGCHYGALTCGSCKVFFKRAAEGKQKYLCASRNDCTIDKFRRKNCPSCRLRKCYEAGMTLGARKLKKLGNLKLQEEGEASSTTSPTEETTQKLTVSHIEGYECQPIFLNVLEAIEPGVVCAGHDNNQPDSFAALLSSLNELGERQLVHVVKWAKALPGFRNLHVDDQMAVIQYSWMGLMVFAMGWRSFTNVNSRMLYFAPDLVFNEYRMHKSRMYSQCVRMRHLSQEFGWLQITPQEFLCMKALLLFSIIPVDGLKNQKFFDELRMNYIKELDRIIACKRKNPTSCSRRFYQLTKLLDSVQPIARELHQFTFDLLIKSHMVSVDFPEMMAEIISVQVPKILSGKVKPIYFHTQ
# measurement.protocol: Induction of androgen receptor degradation in human VCaP cells at 0.01 uM after 24 hrs by Western blotting analysis relative to control
# Assay type: cell-based
measurement.kind: Activity

1. C[C@@H]1N(c2ccc(C#N)c(Cl)c2)CCC12CCN(c1ccc(C(=O)N3CCN(C4CN(c5ccc6c(c5)C(=O)N(C5CCC(=O)NC5=O)C6=O)C4)CC3)cc1)CC2 (stereo partly specified)	84%
2. N#Cc1ccc(N2CCC3(CCN(C(=O)c4ccc(C(=O)N5CCN(CC6CCN(c7ccc8c(c7)C(=O)N(C7CCC(=O)NC7=O)C8=O)CC6)CC5)cc4)CC3)C2)cc1Cl (stereo unspecified)	< 5%
3. N#Cc1ccc(N2CCC3(CCN(c4ccc(C(=O)N5CCCN(C6CCN(c7ccc8c(c7)C(=O)N(C7CCC(=O)NC7=O)C8=O)CC6)CC5)cc4)CC3)C2)cc1Cl (stereo unspecified)	45%
4. N#Cc1ccc(N2CCC3(CCN(c4ccc(C(=O)N5CCN(C6CN(c7ccc8c(c7)C(=O)N(C7CCC(=O)NC7=O)C8=O)C6)CC5)cc4)CC3)C2)cc1Cl (stereo unspecified)	78%
5. C[C@H]1CC2(CCN(c3ccc(C(=O)N4CCN(C5CN(c6ccc7c(c6)C(=O)N(C6CCC(=O)NC6=O)C7=O)C5)CC4)cc3)CC2)CN1c1ccc(C#N)c(Cl)c1 (stereo partly specified)	> 95%
6. C[C@H]1CC2(CCN(c3ccc(C(=O)N4CCN(C5CN(c6ccc7c(c6)C(=O)N(C6CCC(=O)NC6=O)C7=O)C5)CC4)cc3)CC2)CN1c1ccc(C#N)c(C(F)(F)F)c1 (stereo partly specified)	> 90%
